Target: thrombin (Enzyme Research Laboratories) (human, UniProt P00734 328-622)
Experiment: cell-based or functional assay
Bridge positions count the residues as written; N and C are the ends. Ends that are not written are not given here. * marks the point of attachment. mXylyl = xylyl linker from dibromoxylene joining the two cysteines; des‑NH2 = missing amino-terminal amine group; Heptanoyl = CCCCCCC(=O)*
Reported values of Thrombin IC50 for individual entries

# binder, Thrombin IC50
records = [
    ("Heptanoyl-CESICRV-NH2 (linker 1-5 via mXylyl) [R2041]", "> 100 µM"),
    ("Ac-CASICRV-NH2 (linker 1-5 via mXylyl; not fully specified (residue 2); printed as [mXylyl(1,5)]Ac-C-a-SICRV-NH2) [R2047]", "> 100 µM"),
    ("{des‑NH2}-CESICRV-NH2 (linker 1-5 via mXylyl; not fully specified (residue 1); printed as [mXylyl(1,5)](des-NH2)C-ESICRV-NH2) [R2051]", "> 100 µM"),
    ("MCNYWSPWTECSA-NH2 (cysteine pairing not given here) [R2104]", "> 100 µM"),
]
